ASSAY TEXT: IV and PO pharmacokinetic studies of prodrug salts (Iab, Ibb, Icb) in the dog, with historical parent data
Format: in vivo, beagle dogs
EXPERIMENTAL CONDITIONS: plasma, oral, 5 mg/kg, read-out: C-24 hr
OBSERVABLE: concentration at 24 h
Number first, unit second: that is the form wanted.

[Q] Return reported concentration at 24 h; argument: O=C(C(=O)N1CCN(C(=O)c2ccccc2)CC1)c1c[nH]c2c(-n3ccnn3)ncc(F)c12
[A] 34 nM

* * *

ASSAY TEXT: Single-dose toxicokinetic and tolerability study of prodrugs in dogs
Format: in vivo, dog
EXPERIMENTAL CONDITIONS: female, dog, plasma, po, 92 mg/kg, dog 3201F, day 1, Icb 92 mg/kg (IVc equiv. 75) QD dry-filled capsules
OBSERVABLE: Cmax (µM)
Value expressed in µM; do not type the unit.

[Q] Find the recorded Cmax belonging to COc1cnc(-n2cnc(C)n2)c2[nH]cc(C(=O)C(=O)N3CCN(C(=O)c4ccccc4)CC3)c12 and report it.
[A] 157
